Origin of values: patent US20120220581A1

Target: Rat recombinant PDE10A (rPDE10A2) (Rattus norvegicus, UniProt Q9QYJ6)
Construct: inferred from the Ni metal chelate purification; made in house; host or cells: Sf9 insect cells (baculovirus)
Sequence (Q9QYJ6 1-794): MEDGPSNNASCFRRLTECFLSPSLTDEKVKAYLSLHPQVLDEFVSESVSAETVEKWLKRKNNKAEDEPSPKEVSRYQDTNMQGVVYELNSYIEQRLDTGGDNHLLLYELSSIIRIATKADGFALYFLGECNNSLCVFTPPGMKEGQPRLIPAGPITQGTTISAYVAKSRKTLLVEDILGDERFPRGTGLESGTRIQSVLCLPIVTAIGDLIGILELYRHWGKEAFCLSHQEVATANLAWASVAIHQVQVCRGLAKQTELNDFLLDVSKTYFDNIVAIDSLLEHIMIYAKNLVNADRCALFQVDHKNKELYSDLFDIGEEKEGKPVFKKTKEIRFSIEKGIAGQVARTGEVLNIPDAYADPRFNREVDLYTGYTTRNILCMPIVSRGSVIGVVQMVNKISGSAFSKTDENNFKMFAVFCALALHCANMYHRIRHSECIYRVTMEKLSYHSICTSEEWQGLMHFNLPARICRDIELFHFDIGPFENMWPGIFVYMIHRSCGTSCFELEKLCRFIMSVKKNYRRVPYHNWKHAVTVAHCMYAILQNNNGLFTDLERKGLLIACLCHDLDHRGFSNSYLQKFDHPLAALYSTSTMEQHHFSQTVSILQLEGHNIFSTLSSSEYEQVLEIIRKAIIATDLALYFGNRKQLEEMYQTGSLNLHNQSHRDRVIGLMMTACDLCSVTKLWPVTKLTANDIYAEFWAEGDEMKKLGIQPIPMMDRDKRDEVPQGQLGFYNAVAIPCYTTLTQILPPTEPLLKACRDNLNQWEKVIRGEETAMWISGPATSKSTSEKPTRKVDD
Assay: In vitro assay PDE10A (SPA, 3H-cAMP)
Format: biochemical
Conditions: pIC50 corresponds to the −log IC50 expressed in mol/L; read-out: PDE10A2 pIC50 (converted)
Returns: string. Value is 1 if measured IC50 is below 50 nM, and 0 if it is greater than or equal to it.

COMPOUND: c1cc(-c2ccnn3c(-c4ccc(N5CCNCC5)nc4)c(C4CC4)nc23)ccn1 [compound 102]
CLASSIFICATION: 1
//
COMPOUND: Cc1nc2c(N3CCOCC3)cc(C3CC3)nn2c1-c1ccc(C2CCOCC2)nc1 [compound 78]
CLASSIFICATION: 0
//
COMPOUND: Cc1nc2c(N3CCOCC3)ccnn2c1-c1cn[nH]c1 [compound 116]
CLASSIFICATION: 0
//
COMPOUND: COCCc1ccc(-c2c(C3CC3)nc3c(-c4ccncc4)ccnn23)cn1 [compound 10]
CLASSIFICATION: 1
//
COMPOUND: COCCOc1ccc(-c2c(C)nc3c(-c4ccncc4)cc(C4CC4)nn23)cn1 [compound 59]
CLASSIFICATION: 0
//
COMPOUND: CCc1nc2c(-c3ccncc3)ccnn2c1-c1cnn(CCOC)c1 [compound 132]
CLASSIFICATION: 0
//
COMPOUND: CCc1ccc(-c2c(C)nc3c(N4CCOCC4)ccnn23)cn1 [compound 28]
CLASSIFICATION: 0
//
COMPOUND: CCc1nc2c(N3CCOCC3)ccnn2c1-c1cnn(CCOC)c1 [compound 127]
CLASSIFICATION: 0
//
COMPOUND: Cc1cc(N2CCOCC2)c2nc(C)c(-c3ccc(C4CC4)nc3)n2n1 [compound 110]
CLASSIFICATION: 0
//
COMPOUND: Cc1nc2c(-c3ccncc3)ccnn2c1-c1ccc(C2CC2)nc1 [compound 111]
CLASSIFICATION: 0
//
COMPOUND: Cc1nc2c(N3CCOCC3)ccnn2c1-c1cnn(Cc2cccnc2)c1 [compound 115]
CLASSIFICATION: 1
//
COMPOUND: COCCn1cc(-c2c(C)nc3c(-c4ccncc4)cc(C)nn23)cn1 [compound 134]
CLASSIFICATION: 0
//
COMPOUND: CCc1ccc(-c2c(C3CC3)nc3c(-c4ccncc4)ccnn23)cn1 [compound 87]
CLASSIFICATION: 1
//
COMPOUND: Cc1nc2c(N3CCOCC3)ccnn2c1-c1ccc(CC(C)C)nc1 [compound 104]
CLASSIFICATION: 0
//
COMPOUND: COCCn1cc(-c2c(C(F)(F)F)nc3c(-c4ccncc4)ccnn23)cn1 [compound 122]
CLASSIFICATION: 1
//
COMPOUND: Cc1nc2c(N3CCOCC3)ccnn2c1-c1ccc(N2CCNCC2)nc1 [compound 30]
CLASSIFICATION: 0
//
COMPOUND: Cc1nc2c(N3CCOCC3)ccnn2c1-c1ccc(NC(C)C)nc1 [compound 90]
CLASSIFICATION: 0
//
COMPOUND: COCCn1cc(-c2c(C)nc3c(N4CCCC4)ccnn23)cn1 [compound 136]
CLASSIFICATION: 0

* * *

molecular target: PDE10 (Rattus norvegicus); construct: from tissue; host or cells: rat brain sections, striatum (in vivo dosing, ex vivo autoradiography); test: PDE10 occupancy ([3H]-MP-10, striatum); assay type: in vivo; conditions: rat, sc; single dose 10 mg/kg, subcutaneous; read-out: SD sc % occupancy at 10 mg/kg

SAMPLE_SMILES: COCCc1ccc(-c2c(C)nc3c(N4CCOCC4)ccnn23)cn1
UNIT_LABEL: %
receptor occupancy at 10 mg/kg: 76

SAMPLE_SMILES: COCCOc1ccc(-c2c(C)nc3c(N4CCOCC4)ccnn23)cn1
UNIT_LABEL: %
receptor occupancy at 10 mg/kg: 52

SAMPLE_SMILES: COC(C)(C)COc1ccc(-c2c(C)nc3c(N4CCOCC4)ccnn23)cn1
UNIT_LABEL: %
receptor occupancy at 10 mg/kg: 46

SAMPLE_SMILES: Cc1nc2c(N3CCOCC3)ccnn2c1-c1ccc(N2CCOCC2)nc1
UNIT_LABEL: %
receptor occupancy at 10 mg/kg: 57

SAMPLE_SMILES: Cc1nc2c(N3CCOCC3)ccnn2c1-c1ccc(OCC2CC2)nc1
UNIT_LABEL: %
receptor occupancy at 10 mg/kg: 17

SAMPLE_SMILES: Cc1nc2c(N3CCOCC3)ccnn2c1-c1cnn(CC(F)(F)C2CC2)c1
UNIT_LABEL: %
receptor occupancy at 10 mg/kg: 40

SAMPLE_SMILES: Cc1nc2c(N3CCOCC3)ccnn2c1-c1ccc(OC(C)C)nc1
UNIT_LABEL: %
receptor occupancy at 10 mg/kg: 29

SAMPLE_SMILES: CO[C@@H](C)Cn1cc(-c2c(C)nc3c(N4CCOCC4)ccnn23)cn1
UNIT_LABEL: %
receptor occupancy at 10 mg/kg: 59

SAMPLE_SMILES: CC(C)Cn1cc(-c2c(C3CC3)nc3c(-c4ccncc4)ccnn23)cn1
UNIT_LABEL: %
receptor occupancy at 10 mg/kg: 66

SAMPLE_SMILES: COC(C)(C)Cn1cc(-c2c(C)nc3c(N4CCOCC4)ccnn23)cn1
UNIT_LABEL: %
receptor occupancy at 10 mg/kg: 67

SAMPLE_SMILES: COCCn1cc(-c2c(C)nc3c(-c4ccncc4)cc(Cl)nn23)cn1
UNIT_LABEL: %
receptor occupancy at 10 mg/kg: 22

SAMPLE_SMILES: CCc1nc2c(-c3ccncc3)ccnn2c1-c1cnn(CCOC)c1
UNIT_LABEL: %
receptor occupancy at 10 mg/kg: 44

SAMPLE_SMILES: COCCn1cc(-c2c(C(C)C)nc3c(-c4ccncc4)ccnn23)cn1
UNIT_LABEL: %
receptor occupancy at 10 mg/kg: 0

SAMPLE_SMILES: COCCn1cc(-c2c(C)nc3c(-c4ccncc4)ccnn23)cn1
UNIT_LABEL: %
receptor occupancy at 10 mg/kg: 72

SAMPLE_SMILES: Cc1nc2c(N3CCOCC3)ccnn2c1-c1ccnc(OC(C)C)c1
UNIT_LABEL: %
receptor occupancy at 10 mg/kg: 1

SAMPLE_SMILES: CCc1nc2c(N3CCOCC3)ccnn2c1-c1cnn(CCOC)c1
UNIT_LABEL: %
receptor occupancy at 10 mg/kg: 4

SAMPLE_SMILES: Cc1nc2c(N3CCOCC3)ccnn2c1-c1cnn(CC(C)C)c1
UNIT_LABEL: %
receptor occupancy at 10 mg/kg: 67

SAMPLE_SMILES: COCCn1cc(-c2c(C3CC3)nc3c(-c4ccncc4)ccnn23)cn1
UNIT_LABEL: %
receptor occupancy at 10 mg/kg: 78

SAMPLE_SMILES: COCCOc1ccc(-c2c(C)nc3c(-c4ccncc4)ccnn23)cn1
UNIT_LABEL: %
receptor occupancy at 10 mg/kg: 61

* * *

Catalogue of IC50 values
Target: other members of the PDE family (Homo sapiens)
Sequence (O00408 whole entry): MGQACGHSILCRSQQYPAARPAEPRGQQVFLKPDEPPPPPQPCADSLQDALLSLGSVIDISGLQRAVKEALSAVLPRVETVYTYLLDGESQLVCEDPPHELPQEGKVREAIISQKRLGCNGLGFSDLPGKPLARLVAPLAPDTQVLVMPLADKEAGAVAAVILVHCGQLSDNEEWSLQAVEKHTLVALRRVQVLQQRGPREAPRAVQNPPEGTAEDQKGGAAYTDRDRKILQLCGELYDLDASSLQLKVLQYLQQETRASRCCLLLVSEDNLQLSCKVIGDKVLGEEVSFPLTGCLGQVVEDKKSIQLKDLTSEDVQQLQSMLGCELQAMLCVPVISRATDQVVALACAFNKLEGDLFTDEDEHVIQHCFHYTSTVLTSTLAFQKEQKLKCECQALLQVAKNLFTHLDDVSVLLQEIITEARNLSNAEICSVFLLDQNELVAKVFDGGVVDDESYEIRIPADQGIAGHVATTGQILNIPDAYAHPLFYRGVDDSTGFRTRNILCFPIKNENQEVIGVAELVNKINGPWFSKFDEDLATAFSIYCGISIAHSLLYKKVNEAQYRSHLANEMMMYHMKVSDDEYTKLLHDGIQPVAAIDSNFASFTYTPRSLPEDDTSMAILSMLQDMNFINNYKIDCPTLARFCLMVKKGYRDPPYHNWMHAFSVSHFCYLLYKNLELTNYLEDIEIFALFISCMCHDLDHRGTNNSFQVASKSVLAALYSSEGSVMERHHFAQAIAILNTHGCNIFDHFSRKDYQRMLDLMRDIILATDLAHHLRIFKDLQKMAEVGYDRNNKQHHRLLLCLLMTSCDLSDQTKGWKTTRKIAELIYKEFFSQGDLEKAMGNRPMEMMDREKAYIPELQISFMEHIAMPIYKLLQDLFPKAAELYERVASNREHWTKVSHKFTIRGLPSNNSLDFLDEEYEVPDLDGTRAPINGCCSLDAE
Test: In vitro PDE selectivity assay (SPA), other members of the PDE family (protocols in Table A)
Assay type: biochemical
Settings: hPDE2A; read-out: PDE 2A (expressed as pIC50) (converted)
Experimental: Rat recombinant PDE10A (rPDE10A2) was expressed in Sf9 cells using a recombinant rPDE10A baculovirus construct. Cells were harvested after 48 h of infection and the rPDE10A protein was purified by metal chelate chromatography on Ni-sepharose 6FF. […] After sedimentation of the beads during 30 minutes the radioactivity was measured in a Perkin Elmer Topcount scintillation counter and results were expressed as cpm. […]

SAMPLE_SMILES: COCCn1cc(-c2c(C)nc3c(N4CCCC4)ccnn23)cn1
IC50: > 10 µM

SAMPLE_SMILES: Cc1cc(N2CCOCC2)c2nc(C3CC3)c(-c3ccc(N4CCOCC4)nc3)n2n1
IC50: > 10 µM

SAMPLE_SMILES: Cc1nc2c(N3CCOCC3)ccnn2c1-c1ccc(C(C)C)nc1
IC50: > 10 µM
